Measured IC50, listed per entry.
Molecular target: BsIMPDH (Bacillus subtilis IMPDH) (Bacillus subtilis, UniProt P21879)
Sequence (P21879 whole entry): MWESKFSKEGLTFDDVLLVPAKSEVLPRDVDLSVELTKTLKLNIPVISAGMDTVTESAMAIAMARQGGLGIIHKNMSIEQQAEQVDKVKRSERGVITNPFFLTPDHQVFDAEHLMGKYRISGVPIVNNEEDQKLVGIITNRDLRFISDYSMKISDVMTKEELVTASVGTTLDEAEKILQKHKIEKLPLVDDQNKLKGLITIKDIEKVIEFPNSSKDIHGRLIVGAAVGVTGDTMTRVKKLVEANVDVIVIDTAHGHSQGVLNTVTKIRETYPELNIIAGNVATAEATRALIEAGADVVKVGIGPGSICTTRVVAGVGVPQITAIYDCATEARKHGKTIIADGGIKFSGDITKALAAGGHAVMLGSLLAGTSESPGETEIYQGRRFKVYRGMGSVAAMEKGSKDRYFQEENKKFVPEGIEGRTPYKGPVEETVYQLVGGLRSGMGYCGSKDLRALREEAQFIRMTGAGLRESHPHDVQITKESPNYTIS

Nc1nc2c(ncn2[C@@H]2O[C@H](COP(=O)(O)OP(=O)(O)O)[C@@H](OP(=O)(O)OP(=O)(O)O)[C@H]2O)c(=O)[nH]1: 8.9 µM

Give the reported IC50 for this compound. Nc1nc2c(ncn2[C@@H]2O[C@H](COP(=O)(O)OP(=O)(O)OP(=O)(O)O)[C@@H](OP(=O)(O)OP(=O)(O)O)[C@H]2O)c(=O)[nH]1
11.4 µM

###

So I've got IC50 readings for StcIMPDH (Streptomyces coelicolor IMPDH) (Streptomyces coelicolor), take a look.
Form entry: value (nM) — number only.

Nc1nc2c(ncn2[C@@H]2O[C@H](COP(=O)(O)OP(=O)(O)O)[C@@H](OP(=O)(O)OP(=O)(O)O)[C@H]2O)c(=O)[nH]1: 2000

Note: attention shifts to another entry.
# return IC50 for Nc1nc2c(ncn2[C@@H]2O[C@H](COP(=O)(O)OP(=O)(O)OP(=O)(O)O)[C@@H](OP(=O)(O)OP(=O)(O)O)[C@H]2O)c(=O)[nH]1 , test system: StcIMPDH (Streptomyces coelicolor IMPDH) (Streptomyces coelicolor)
# Sequence (Q9L0I7 entry or part of it): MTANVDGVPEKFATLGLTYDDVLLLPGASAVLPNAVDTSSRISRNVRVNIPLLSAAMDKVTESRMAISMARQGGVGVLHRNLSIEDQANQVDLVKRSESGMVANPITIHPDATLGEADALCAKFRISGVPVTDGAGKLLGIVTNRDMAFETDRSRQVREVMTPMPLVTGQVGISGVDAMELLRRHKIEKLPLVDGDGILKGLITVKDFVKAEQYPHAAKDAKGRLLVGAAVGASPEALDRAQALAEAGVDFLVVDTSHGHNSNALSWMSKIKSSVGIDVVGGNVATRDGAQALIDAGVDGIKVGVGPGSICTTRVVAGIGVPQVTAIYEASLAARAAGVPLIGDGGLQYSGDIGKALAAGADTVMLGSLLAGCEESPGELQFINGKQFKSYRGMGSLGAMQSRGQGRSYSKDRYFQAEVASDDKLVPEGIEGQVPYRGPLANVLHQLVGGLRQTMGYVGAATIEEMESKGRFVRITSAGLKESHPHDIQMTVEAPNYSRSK
1400

The values you see were collected from paper PMC9462843.
